- Protocol details: JC-1 mitochondrial signal, unstimulated myeloma cells – cell-based, JC-1 fluorescence, RPMI8226, 24 h, 100 nL compound, profiling panel (AID 1169); also: test concentration not given here
- Protocol conditions: JC-1 mitochondrial potential fluorescence, higher = more signal
Record form. Attribute: z-score. Fill in for each entry.
Provide a numeric answer; units are not to be included.

z-score for COc1ccccc1CN1C(=O)c2ccccc2[C@@H](C(=O)NCC(C)C)[C@@H]1c1ccc(CO)cc1 ? 0.398

State the recorded z-score for this entry: COC(=O)[C@H]1N=C(c2ccc(OCCCO)cc2)O[C@H]1c1ccccc1CN=[N+]=[N-] 0.344

For the molecule CCCC[C@@H](O)C1=C(COc2ccccc2)Cn2c(=O)n(-c3ccccc3)c(=O)n2[C@H]1CO , what z-score is on record? 0.42

Consider the molecule shown here: C=CCOC(=O)[C@@H]1[C@H]2C(=O)O[C@H](c3ccccc3)[C@H](c3ccccc3)N2[C@H](c2ccc(OCCOC(=O)[C@H]3C[C@H]4C(=O)N[C@@H](Cc5ccccc5)C(=O)N4[C@H]3c3cccc(OCCO)c3)cc2)[C@@]12C(=O)Nc1ccc(I)cc12 What is its recorded z-score? -0.903

# z-score lookup, item COc1ccc([Si](C)(C)[C@@H]2[C@@H](CCO)O[C@]3(C(=O)N(Cc4ccccc4)c4ccc(N5CCCCC5=O)cc43)[C@H]2C)cc1 -0.776

====

- Protocol details: plasmodial surface anion channel blockers, osmotic lysis – cell-based, P. falciparum Indochina, OD700, 2 h, primary screen (AID 1155);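 also: lysis reports solute entry through the parasite surface anion channel PSAC; channel blockers reduce lysis of infected cells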
- Protocol conditions: P. falciparum Indochina infected erythrocytes, called active from +8 up or from −8 down
Calls of active or inactive are those of the source.
# output must be one of Yes = active, No = inactive

I'd appreciate the recorded outcome for COC(=O)[C@]1(Cc2ccccc2CN=[N+]=[N-])N=C(c2ccc(OCCCO)cc2)O[C@@H]1c1ccccc1 from this test. Yes

Status in this test for COc1ccc(C#Cc2ccc3c(c2)[C@]2(C(=O)N3)[C@H](C(N)=O)[C@H]3C(=O)O[C@H](c4ccccc4)[C@H](c4ccccc4)N3[C@@H]2c2ccc(O)cc2)cc1 ? No

# outcome recorded in this test, key = COc1cccc(C[C@H]2C[C@@H](CO[Si](C(C)C)(C(C)C)C(C)C)N3C(=O)[C@]4(C(C)=O)O[C@]23[C@H]2C(=O)N(C)C(=O)[C@H]24)c1 No

# outcome recorded in this test, key = CN(C)C(=O)[C@@]1(CCC(=O)OC(C)(C)C)N=C(c2ccc(OCCCO)cc2)O[C@H]1c1ccccc1N=[N+]=[N-] Yes

Assay result, entry CCOC(=O)C1=CC[C@@H](c2ccc(N(CC)CC)cc2)N(S(=O)(=O)c2ccc(C)cc2)[C@H]1c1ccc([N+](=O)[O-])cc1 — outcome? No

Call for entry CO[C@H]1O[C@H](CO)[C@@H](OC(=O)c2ccc(Br)cc2)[C@@H]2OC(=O)[C@H](Cc3cccc(Br)c3)C/C=C/C[C@@H](Cc3cccc(Br)c3)C(=O)O[C@@H]12 : No

What call does the record list for COCCOC(=O)N1C(=O)[C@@]2(c3cc(C#CC4(O)CCCCCC4)ccc31)[C@H](C(=O)NC[C@H](O)c1ccccc1)[C@H]1C(=O)O[C@H](c3ccccc3)[C@H](c3ccccc3)N1[C@@H]2c1ccc(OCCO)cc1 ? No

Would you mind telling me which call this test gave O=C1CSC(c2cccc([N+](=O)[O-])c2)N1c1ccccc1 (stereo not given) ? No

Kindly provide the recorded test outcome for the following molecule: C[C@@]1([C@@H](NC(=O)c2cccs2)c2ccc(-c3ccccc3)cc2)C[C@H]1C1CCCCC1 No

Any idea what this test logged for O=C(C=C(CC(O)c1cccc(Cl)c1)OCCF)OCCF (stereo not given) ? No

Look up the recorded call for COC(=O)[C@H]1N=C(c2ccc(OCCCO)cc2)O[C@H]1c1ccccc1CN=[N+]=[N-] in this test. No

What call does the record list for CO[C@H]1O[C@H](CO)[C@@H](OC(=O)Nc2cccc(F)c2)[C@H](OC(=O)Nc2ccc3c(c2)OCO3)[C@H]1OC(=O)Nc1ccc2c(c1)OCO2 ? No

Returns: the outcome recorded for COc1cc2c(cc1OC)CN(C(=O)[C@@H]1[C@H]3C(=O)O[C@H](c4ccccc4)[C@H](c4ccccc4)N3[C@H](c3ccc(OCCO)cc3)[C@@]13C(=O)Nc1ccc(C#CCCO)cc13)CC2 in this assay. No

# lookup: test call for C=CCC(OC(C)=O)[C@@H]1[C@@H](N(Cc2cccc3ccccc23)C(=O)c2ccc(C)cc2)c2cc(OCCCO)ccc2N1C(=O)c1ccc2ccccc2c1 (stereo not given in full) No

Look up the recorded call for CN(C)CCCN1C(=O)[C@@]2(Cc3ccccc31)c1ccccc1C(=O)N(Cc1ccccc1)[C@H]2c1ccc(CO)cc1 in this test. No

Test call for this molecule, please: Cc1ccccc1C(O)C1C=CC2C(=O)N(C)C(=O)C2N1Nc1ccc([N+](=O)[O-])cc1[N+](=O)[O-] (stereo not given) No

Look up the recorded call for C/C=C/[C@@H](CCn1cc([C@H](O)c2ccccc2)nn1)[Si](C)(C)c1ccc(OC)cc1 in this test. No

Given COCCOC(=O)N1C(=O)[C@@]2(c3cc(C#CC4(O)CCCCCC4)ccc31)[C@H](C(=O)N1CCc3cc(OC)c(OC)cc3C1)[C@H]1C(=O)O[C@H](c3ccccc3)[C@H](c3ccccc3)N1[C@@H]2c1ccccc1OCCO , state the outcome it received in this test. No

Each molecule tested received a call. Report the one for [N-]=[N+]=NCc1ccccc1[C@H]1OC(c2ccc(OCCCO)cc2)=N[C@@]1(Cc1ccccc1N=[N+]=[N-])C(=O)NCCN1CCOCC1 . Yes

I would be grateful if you could indicate the recorded call for CC(C)c1ccc(NN2C(C(O)c3cccs3)C=CC3C(=O)N(c4ccccc4)C(=O)C32)cc1 (stereo not given) . No

====

- Protocol details: optical density shifts of acrAB sulA E. coli – strain DRC41, OD650, 48 h, E. coli filamentation inducer project, primary screen (AID 1152);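 also: E. coli MC1000 strain DRC41 lacking acrAB efflux pump and sulA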
- Protocol conditions: higher = more signal, called active from +8 up or from −8 down
Active and inactive are the calls of the source.
Measurement label: z-score

What measured z-score goes with CC1CC/C=C\[C@H]2OC34C=CCN(Cc5ccccc5)C(=O)[C@H]3N(CCO)C(=O)[C@@H]4C2C(=O)O1 (some centres undefined) ? 0.788 (inactive)

Param item = COc1ccccc1CN1C(=O)c2ccccc2[C@](Cc2ccccc2I)(C(=O)NCCN2CCOCC2)[C@@H]1c1ccc(CO)cc1 ; retrieve measured z-score. 0.117 (inactive)

Return reported z-score; argument: C=C(C)[C@@H]1CC=C(C(O)C2C=CC3C(=O)N(C4CCCCC4)C(=O)C3N2Nc2ccc(OC)cc2)CC1 (some centres undefined) -0.441 (inactive)

Item Cc1ccc(-c2cccc(=O)o2)cc1 has what recorded z-score? -0.418 (inactive)

====

- Protocol details: plasmodial surface anion channel blockers, osmotic lysis – cell-based, P. falciparum Indochina, OD700, 1 h, primary screen (AID 1154)
- Protocol conditions: P. falciparum Indochina infected RBC osmotic lysis, higher = more signal, called active from +8 up or from −8 down
Measurement label: z-score
Form field (numeric): enter value without unit.

Need z-score of C=C(COC)C(=O)CC[C@H](OC(=O)c1ccccc1-c1ccccc1C(=O)O)c1ccc(CO)o1 , thanks. 1.77

What value of z-score has been recorded for this entry: COCCOC(=O)N1C(=O)[C@@]2(c3cc(C#CCNC(N)=O)ccc31)[C@H](C(N)=O)[C@H]1C(=O)O[C@H](c3ccccc3)[C@H](c3ccccc3)N1[C@@H]2c1ccc(OCCO)cc1 6.81

What z-score value was documented for this molecule, C[C@]12C(=O)N(CCCO)[C@@H]3C(=O)N(c4ccc(Cl)cc4)CC=CC31O[C@@H]1/C=C\CCCOC(=O)C12 (some centres not stated) ? 1.29

// lookup z-score for OCc1ccc(-c2cc[n+](Cc3cccc(OC(F)(F)F)c3)cc2)cc1 0.51

For the molecule shown here, COc1ccc(C(=O)Nc2ccc3c(c2)[C@]2(O[C@@H](CCO)[C@H]([Si](C)(C)c4ccc(OC)cc4)[C@H]2C)C(=O)N3Cc2ccccc2)cc1 , give the reported z-score. 4.99

Request the reported z-score associated with C=C(CCCC)/C(=C/C[C@H](OC(=O)c1ccncc1)c1ccc(CO)o1)c1cc(C(=O)OC)ccc1OC 4.31

Entry CN1C(=O)C2C=CC(C(O)COCc3ccccc3)N(Nc3ccccc3)C2C1=O (configuration not stated) has what z-score? 0.625

What value of z-score has been recorded for this entry: COCCOC(=O)N1C(=O)[C@@]2(c3cc(C#CCCO)ccc31)[C@H](c1ccc(OCCO)cc1)N1[C@H](c3ccccc3)[C@H](c3ccccc3)OC(=O)[C@H]1[C@@H]2C(=O)N1CCc2cc(OC)c(OC)cc2C1 3.2

z-score for O=C(N1CCOCC1)[C@@]1(CCS(=O)(=O)c2ccccc2)COC(c2ccc(OCCCO)cc2)=N1 ? 23.8

// query z-score value for entry COC(=O)[C@]1(Cc2ccccc2CN=[N+]=[N-])N=C(c2ccc(OCCCO)cc2)O[C@@H]1c1ccccc1 27.8

Reported z-score, molecule Cc1ccc(F)cc1S(=O)(=O)N[C@@H]1CCN(C(=O)c2ccc(OC(C)C)cc2)C1 : ____ 2.54

What does the record list as z-score for O=C(O)[C@]1(CCS(=O)(=O)c2ccccc2)N=C(c2ccc(OCCCO)cc2)O[C@@H]1c1ccccc1 ? 11.3
